// reported viability at 8 h, 500 ng/well per item
test: MTT viability assay after treatment with Fluc mRNA/amino lipidated peptoid formulations; format: cell-based; details: human, HeLa cells, Relative Viability (%) No PEG
Dear colleague, please return just the value in %, with no unit written.

Exam item: Entry under review: CCCCCCCCCCN(CC(N)=O)C(=O)CN(CCCCCCCCCC)C(=O)CN(CCc1ccccc1)C(=O)CN(CCc1ccccc1)C(=O)CN(CC1CCCN1)C(=O)CN(CCc1ccccc1)C(=O)CN(CCc1ccccc1)C(=O)CN(CC1CCCN1)C(=O)CN(CCc1ccccc1)C(=O)CN(CCc1ccccc1)C(=O)CNCC1CCCN1 (centres unmarked) . Reported viability at 8 h, 500 ng/well?
Marked response: 93.6

Now for a further molecule.
Exam item: Recorded viability at 8 h, 500 ng/well for `CCCCCCCCCCN(CC(N)=O)C(=O)CN(CCCCCCCCCC)C(=O)CN(CCCCCCCCCC)C(=O)CN(CCCCCCCCCC)C(=O)CN(CCCCCCCCCC)C(=O)CN(CCCCCCCCCC)C(=O)CN(CCc1ccccc1)C(=O)CN(CCc1ccccc1)C(=O)CN(CCN)C(=O)CN(CCc1ccccc1)C(=O)CN(CCc1ccccc1)C(=O)CN(CCN)C(=O)CN(CCc1ccccc1)C(=O)CN(CCc1ccccc1)C(=O)CNCCN` , please?
Marked response: 104

###

# viability at 8 h, 500 ng/well values compiled below
Experiment: MTT viability assay after treatment with Fluc mRNA/amino lipidated peptoid formulations
Format: cell-based
Settings: human, HeLa cells, Relative Viability (%) No PEG
Experimental: Cellular viability was measured following treatment with Fluc mRNA/amino lipidated peptoid formulations by a traditional MTT viability assay. […] In this assay, cells were first treated with peptoid formulations at a final mRNA concentration of 100 ng/well for 8 hours. […]
Give the quantity in %, number only.

Example entries begin here.
Exam item: # get_value(readout='viability at 8 h, 500 ng/well', item= CCCCCCCCCCN(CC(=O)N(CC(=O)N(CCCCCCCCCC)CC(=O)N(CC(N)=O)CC(CC)CCCC)CC(CC)CCCC)C(=O)CN(CCc1ccccc1)C(=O)CN(CCc1ccccc1)C(=O)CN(CCN)C(=O)CN(CCc1ccccc1)C(=O)CN(CCc1ccccc1)C(=O)CN(CCN)C(=O)CN(CCc1ccccc1)C(=O)CN(CCc1ccccc1)C(=O)CNCCN (stereo not drawn) )
Marked response: 92

Exam item: Reported viability at 8 h, 500 ng/well, compound CCCCCCCCCCN(CC(N)=O)C(=O)CN(CCCCCCCCCC)C(=O)CN(CCCCCCCCCC)C(=O)CN(CCCCCCCCCC)C(=O)CN(CCc1ccccc1)C(=O)CN(CCc1ccccc1)C(=O)CN(CC1CCCN1)C(=O)CN(CCc1ccccc1)C(=O)CN(CCc1ccccc1)C(=O)CN(CC1CCCN1)C(=O)CN(CCc1ccccc1)C(=O)CN(CCc1ccccc1)C(=O)CN(CC1CCCN1)C(=O)CN(CCc1ccccc1)C(=O)CN(CCc1ccccc1)C(=O)CNCC1CCCN1 (stereo not drawn) : ____
Marked response: 74.8

Now for another entry.
Exam item: Given the entry `CCCCCCCCCCNCC(=O)N(CCN)CC(=O)N(CCc1ccccc1)CC(=O)N(CCc1ccccc1)CC(=O)N(CCN)CC(=O)N(CCc1ccccc1)CC(=O)N(CCc1ccccc1)CC(=O)N(CCN)CC(=O)N(CCc1ccccc1)CC(=O)N(CCc1ccccc1)CC(=O)N(CCCCCCCCCC)CC(N)=O` , report its measured viability at 8 h, 500 ng/well.
Marked response: 86.1

###

Assay: Dynamic light scattering (DLS) of mRNA/peptoid formulations: particle size and polydispersity
Type: physicochemical
Conditions: volume average particle size/diameter by DLS; Fluc mRNA/peptoid formulation, 5:1 mass ratio peptoid:cargo
Excerpt: To prepare nanoparticle formulations, the amino lipidated peptoid is mixed by pipetting with nucleic acid at a mass ratio between approximately 1:1 (peptoid:cargo) and 20:1. […] The exemplary amino lipidated cationic peptoids described in Example 2 were combined with firefly luciferase (Fluc) mRNA to form nanoparticle compositions to be evaluated for therapeutic and/or prophylactic purposes in vitro or in vivo. […]
Readout Type: Size (nm)
Write it as a number; the unit nm goes unstated.

Here are 8 molecules together with their reported answers.
Exam item: Which Size (nm) is listed for `CCCCCCCCCCN(CC(N)=O)C(=O)CN(CCCCCCCCCC)C(=O)CN(CCCCCCCCCC)C(=O)CN(CCCCCCCCCC)C(=O)CN(CCCCCCCCCC)C(=O)CN(CCc1ccccc1)C(=O)CN(CCc1ccccc1)C(=O)CN(CCN)C(=O)CN(CCc1ccccc1)C(=O)CN(CCc1ccccc1)C(=O)CNCCN` ?
Marked response: 326.6

Exam item: So what's the measured Size (nm) for this one? `CCCCCCCCCCCCCCCCCCN(CC(N)=O)C(=O)CN(CCCCCCCCCCCCCCCCCC)C(=O)CN(CCc1ccccc1)C(=O)CN(CCc1ccccc1)C(=O)CN(CCN)C(=O)CN(CCc1ccccc1)C(=O)CN(CCc1ccccc1)C(=O)CN(CCN)C(=O)CN(CCc1ccccc1)C(=O)CN(CCc1ccccc1)C(=O)CNCCN`
Marked response: 364.7

Exam item: Quick one: Size (nm) for `CCCCCCCCCCN(CC(N)=O)C(=O)CN(CCc1ccccc1)C(=O)CN(CCc1ccccc1)C(=O)CN(CCN)C(=O)CN(CCc1ccccc1)C(=O)CN(CCc1ccccc1)C(=O)CN(CCN)C(=O)CN(CCc1ccccc1)C(=O)CN(CCc1ccccc1)C(=O)CNCCN` ?
Marked response: 448.6

Exam item: What Size (nm) value was documented for this molecule, `CCCCCCCCCCN(CC(N)=O)C(=O)CN(CCCCCCCCCC)C(=O)CN(CCc1ccccc1)C(=O)CN(CCc1ccccc1)C(=O)CN(CCCN)C(=O)CN(CCc1ccccc1)C(=O)CN(CCc1ccccc1)C(=O)CN(CCCN)C(=O)CN(CCc1ccccc1)C(=O)CN(CCc1ccccc1)C(=O)CNCCCN` ?
Marked response: 282.8

Exam item: Record request: Size (nm) value, item `CCCCCCCCCCN(CC(N)=O)C(=O)CN(CCCCCCCCCC)C(=O)CN(CCc1ccccc1)C(=O)CN(CCc1ccccc1)C(=O)CN(CCN)C(=O)CN(CCc1ccccc1)C(=O)CN(CCc1ccccc1)C(=O)CN(CCN)C(=O)CN(CCc1ccccc1)C(=O)CN(CCc1ccccc1)C(=O)CNCCN`
Marked response: 150

Exam item: Find the recorded Size (nm) belonging to `CCCCCCCCCCN(CC(N)=O)C(=O)CN(CCCCCCCCCC)C(=O)CN(CCCCCCCCCC)C(=O)CN(CCCCCCCCCC)C(=O)CN(CCc1ccccc1)C(=O)CN(CCc1ccccc1)C(=O)CN(CCNC)C(=O)CN(CCc1ccccc1)C(=O)CN(CCc1ccccc1)C(=O)CN(CCNC)C(=O)CN(CCc1ccccc1)C(=O)CN(CCc1ccccc1)C(=O)CNCCNC` and report it.
Marked response: 773.3

Exam item: Which Size (nm) value belongs to `CCCCCCCCCCN(CC(N)=O)C(=O)CN(CCCCCCCCCC)C(=O)CN(CCc1ccccc1)C(=O)CN(CCc1ccccc1)C(=O)CN(CCN)C(=O)CN(CCc1ccccc1)C(=O)CN(CCc1ccccc1)C(=O)CN(CCN)C(=O)CN(CCc1ccccc1)C(=O)CN(CCc1ccccc1)C(=O)CN(CCN)C(=O)CN(CCc1ccccc1)C(=O)CN(CCc1ccccc1)C(=O)CNCCN` ?
Marked response: 354.9

Exam item: Fill blank: measured Size (nm) of the molecule `CCCCCCCCCCN(CC(N)=O)C(=O)CN(CCCCCCCCCC)C(=O)CN(CCCCCCCCCC)C(=O)CN(CCc1ccccc1)C(=O)CN(CCc1ccccc1)C(=O)CN(CCN)C(=O)CN(CCc1ccccc1)C(=O)CN(CCc1ccccc1)C(=O)CN(CCN)C(=O)CN(CCc1ccccc1)C(=O)CN(CCc1ccccc1)C(=O)CNCCN` is ____.
Marked response: 296.7

More entries:
Exam item: Using the record for `CCCCCCCCCCN(CC(N)=O)C(=O)CN(CCCCCCCCCC)C(=O)CN(CCCCCCCCCC)C(=O)CN(CCCCCCCCCC)C(=O)CN(CCc1ccccc1)C(=O)CN(CCc1ccccc1)C(=O)CN(CCCN)C(=O)CN(CCc1ccccc1)C(=O)CN(CCc1ccccc1)C(=O)CN(CCCN)C(=O)CN(CCc1ccccc1)C(=O)CN(CCc1ccccc1)C(=O)CNCCCN` , report its Size (nm).
Marked response: 308

Exam item: Tell me the measured Size (nm) of `CCCCCCCCCCN(CC(N)=O)C(=O)CN(CCCCCCCCCC)C(=O)CN(CCCCCCCCCC)C(=O)CN(CCCCCCCCCC)C(=O)CN(CCc1ccccc1)C(=O)CN(CCc1ccccc1)C(=O)CN(CC1CCNCC1)C(=O)CN(CCc1ccccc1)C(=O)CN(CCc1ccccc1)C(=O)CN(CC1CCNCC1)C(=O)CN(CCc1ccccc1)C(=O)CN(CCc1ccccc1)C(=O)CNCC1CCNCC1` , please.
Marked response: 348.5

Exam item: Bench note: what Size (nm) did `CCCCCCCCCCCCN(CC(N)=O)C(=O)CN(CCCCCCCCCCCC)C(=O)CN(CCc1ccccc1)C(=O)CN(CCc1ccccc1)C(=O)CN(CCN)C(=O)CN(CCc1ccccc1)C(=O)CN(CCc1ccccc1)C(=O)CN(CCN)C(=O)CN(CCc1ccccc1)C(=O)CN(CCc1ccccc1)C(=O)CNCCN` show?
Marked response: 255.3

Exam item: Would you kindly share the measured Size (nm) for `CCCCCCCCCCN(CC(N)=O)C(=O)CN(CCCCCCCCCC)C(=O)CN(CCN)C(=O)CN(CCN)C(=O)CN(CCN)C(=O)CN(CCN)C(=O)CN(CCN)C(=O)CN(CCN)C(=O)CN(CCN)C(=O)CN(CCN)C(=O)CNCCN` ?
Marked response: 1486

Exam item: Could you share which Size (nm) value was measured for `CCCCCCCCCCN(CC(=O)N(CCN)CC(=O)N(CCc1ccccc1)CC(=O)N(CCc1ccccc1)CC(=O)N(CCCCCCCCCC)CC(=O)N(CCN)CC(=O)N(CCc1ccccc1)CC(=O)N(CCc1ccccc1)CC(N)=O)C(=O)CN(CCc1ccccc1)C(=O)CN(CCc1ccccc1)C(=O)CNCCN` ?
Marked response: 472.8

Exam item: // query Size (nm) value for entry `CCCCCCCCCCN(CC(N)=O)C(=O)CN(CCCCCCCCCC)C(=O)CN(CCc1ccccc1)C(=O)CN(CCN)C(=O)CN(CCc1ccccc1)C(=O)CN(CCN)C(=O)CN(CCc1ccccc1)C(=O)CNCCN`
Marked response: 822.6
